List of glass transition temperature values.
measurement_label: glass transition temperature (°C)

*Oc1ccc(NC(=O)c2cc(NC(=O)CCCCCCCCCCN3C(=O)c4ccccc4C3=O)cc(C(=O)Nc3ccc(*)cc3)c2)cc1 (repeat unit)	160.00
*CC(OCC(C)C)C(C)(C(=O)OC)C(*)(C)C(=O)OC (repeat unit)	125.50
*Oc1ccc(OC(C)COCCCCCCCOc2ccc(-c3ccc(C(*)=O)cc3)cc2)c([N+](=O)[O-])c1 (repeat unit)	50.00
*CC(*)(C)C(=O)OCCCCCOc1ccc(-c2ccc(C#N)cc2)cc1 (repeat unit)	60.00
*CCOCCOCCOCCOCCOC(=O)CCSCCC(=O)O* (repeat unit)	-39.00
*CCCCCCCCCCCCCCNC(=O)NCCCCCCNC(=O)N* (repeat unit)	47.00
*CCCCOC(=O)Nc1ccc(-c2ccc(NC(=O)OCCCCn3c4ccccc4c4cc(/C=C(\C#N)C(=O)OCCCCCCOC(=O)/C(C#N)=C/c5ccc6c(c5)c5ccccc5n6*)ccc43)c(C)c2)cc1C (repeat unit)	113.00
*C(=O)Nc1cc(NC(=O)c2ccc3c(c2)C(=O)N(c2cccc(N4C(=O)c5ccc(*)cc5C4=O)c2)C3=O)cc(-c2nc3ccccc3[nH]2)c1 (repeat unit)	361.00
*CC(*)OCC(C)C (repeat unit) [Poly(isobutyl vinyl ether)]	-22.08
*CCN(CCOC(=O)NCC1(C)CC(NC(=O)O*)CC(C)(C)C1)c1ccc(/N=N/c2ccc(C#N)cc2)cc1 (repeat unit)	136.00
*CC(*)(C)C(=O)OCCS(=O)(=O)c1ccc(/N=N/c2ccc(N(CC)CC)cc2)cc1 (repeat unit)	142.00
*Nc1cc(NC(=O)NC2CCC(CC3CCC(NC(*)=O)CC3)CC2)cc(C(=O)Nc2ccc3c(c2)C(=O)c2ccccc2C3=O)c1 (repeat unit)	148.00
*C(=O)Oc1ccc(OCCCCCCCCCCCCOc2ccc(OC(=O)c3ccc4c(c3)C(=O)N(c3ccc(Cc5ccc(N6C(=O)c7ccc(*)cc7C6=O)cc5)cc3)C4=O)cc2)cc1 (repeat unit)	125.00
*CCCCCCCCCCOC(=O)c1ccccc1C(=O)O* (repeat unit)	-14.00
*Oc1ccc(OC(=O)c2ccc(C(*)=O)cc2Oc2ccccc2)cc1 (repeat unit)	105.00

* * *

measurement_label: glass transition temperature (°C)

*c1ccc(*)c(C(=O)c2ccc(F)cc2)c1 (repeat unit)	194.00
*CCCCCCNC(=O)c1ccc(C(=O)N*)cc1 (repeat unit)	132.50
*Oc1cccc(Oc2ccc(NC(=O)c3ccc(Oc4cccc(Oc5ccc(C(=O)Nc6ccc(*)cc6)cc5)c4)cc3)cc2)c1 (repeat unit)	176.50
*Oc1ccc(Oc2ccc(C(=O)Nc3ccc(Oc4ccc(S(=O)(=O)c5ccc(Oc6ccc(NC(=O)c7ccc(*)cc7)cc6)cc5)cc4)cc3)cc2)cc1C (repeat unit)	217.00
*c1cccc(C(=O)Nc2ccc(Oc3ccc(-c4ccc(Oc5ccc(NC(=O)c6cccc(N7C(=O)c8ccc(-c9ccc%10c(c9)C(=O)N(*)C%10=O)cc8C7=O)c6)cc5)cc4)cc3)cc2)c1 (repeat unit)	270.00
*OC1CCC(OC(=O)C(*)=O)CC1 (repeat unit)	139.60
*C1CC2CC1C(*)C2CCCC (repeat unit)	235.00
*OC(=O)Oc1ccc(C(=O)Oc2ccc(OC(=O)OC3COC4C(*)COC34)cc2)cc1 (repeat unit)	115.00
*Oc1ccc(CC(NC(=O)CCc2ccc(OC(=O)CCCC(*)=O)cc2)C(=O)OC(C)C)cc1 (repeat unit)	68.00
*CC1CCC(COC(=O)CCC(=O)O*)CC1 (repeat unit)	-1.00
*c1ccc2c(c1)C(=O)N(c1ccc(C(C)(C)c3ccc(C(C)(C)c4ccc(N5C(=O)c6ccc(C(*)(C(F)(F)F)C(F)(F)F)cc6C5=O)cc4)cc3)cc1)C2=O (repeat unit)	235.40
*CCN1C(=O)c2ccc(C(c3ccc4c(c3)C(=O)N(*)C4=O)(C(F)(F)F)C(F)(F)F)cc2C1=O (repeat unit)	180.00
*c1ccc([Si](c2ccccc2)(c2ccccc2)c2ccc(-c3nnc(-c4cccc(-c5nnc(*)o5)n4)o3)cc2)cc1 (repeat unit)	265.00
*CC1CCC(COC(=O)Nc2ccc(Cc3ccc(NC(=O)O*)cc3)cc2)CC1 (repeat unit)	134.00
*Cc1ccc(COP(=O)(/N=N/c2ccc(Oc3ccc(/N=N/P(=O)(O*)OC)cc3)cc2)OC)cc1 (repeat unit)	50.00
